Provenance of the data: patent US20200399712A1

tested on: HPV-16; assay: qPCR sensitivity against HPV-HNSCC tumor samples diluted among 10 ng normal human DNA; conditions: Sample # 12
For each record, write down the corresponding Threshold of tumor cell numbers for HPV-16 detection.

Threshold of tumor cell numbers for HPV-16 detection reported for this molecule BR E6-1: HPV-16 E6 region (172-373 bp) primer/probe set, SEQ ID NO: 58-60 (nucleic acid, chemistry not given here) DNA 1: CAGTTACTGCGACGTGAGGT DNA 2: ACAGCATATGGATTCCCATCTC DNA 3: ACTTTGCTTTTCGGGATTTATGCATAGTA : 15.0 tumor cells

Threshold of tumor cell numbers for HPV-16 detection reported for this molecule BR E1-6: HPV-16 E1 region primer/probe set, SEQ ID NO: 43-45 (nucleic acid, chemistry not given here) DNA 1: ATGCACAATTGGCAGACACTAA DNA 2: AATCCTTTACAATTTTTGCCTGTGA DNA 3: AGTAATGCAAGTGCCTTTCTAAAAAGTA : 30.0 tumor cells

Threshold of tumor cell numbers for HPV-16 detection reported for this molecule E6: previously designed (historical) HPV-16 E6 primers and Taqman probe, SEQ ID NO: 7-9, positive control (nucleic acid, Taqman probe, labels not given here) DNA 1: TCAGGACCCACAGGAGCG DNA 2: CCTCACGTCGCAGTAACTGTTG DNA 3: CCCAGAAAGTTACCACAGTTATGCACAGAGCT : 15.0 tumor cells

Threshold of tumor cell numbers for HPV-16 detection reported for this molecule HR E5L2-4: primer/probe set for junction between E5 and L2, SEQ ID NO: 55-57 (same as SEQ ID NO: 4-6) (nucleic acid, chemistry not given here) DNA 1: GCAAAACGCACAAAACGTGC DNA 2: GACATGTACCTGCCTGTTTGC DNA 3: CGGCTACCCAACTTTATAAAACA : 30.0 tumor cells

Threshold of tumor cell numbers for HPV-16 detection reported for this molecule BR E1-4: HPV-16 E1 region primer/probe set, SEQ ID NO: 37-39 (nucleic acid, chemistry not given here) DNA 1: ATGCACAATTGGCAGACACTA DNA 2: ACAATCCTTTACAATTTTTGCCTGT DNA 3: TAATGCAAGTGCCTTTCTAAAAAGT : 3.0 tumor cells
